Cited source: the OligoGym collection

# tested system: MTF2
# protocol description: pooled miR-30 sensor sort-seq; sequence = guide strand; further: reference of the scale not given here
# experimental setup: shRNA
Assign MET to entries whose sensor-assay potency score (higher = more potent) meets or exceeds -0.3; assign NOT MET to the rest.

Q: Is reported sensor-assay potency score (higher = more potent) greater than or equal to -0.3 here: "TTATCTTTTTGATAGTGCCAAG"
Ans: NOT MET

Q: Is reported sensor-assay potency score (higher = more potent) greater than or equal to -0.3 here: "TTTATCTTTTTGATAGTGCCAA"
Ans: NOT MET

Q: Is reported sensor-assay potency score (higher = more potent) greater than or equal to -0.3 here: "TAAAACAAGCCATCTGACCATC"
Ans: NOT MET

Q: Is reported sensor-assay potency score (higher = more potent) greater than or equal to -0.3 here: "TATAGAACAAGGTAAATCCAAA"
Ans: NOT MET

Q: Is reported sensor-assay potency score (higher = more potent) greater than or equal to -0.3 here: "TACTCTTCTTGACATATTGTAC"
Ans: NOT MET

Q: Is reported sensor-assay potency score (higher = more potent) greater than or equal to -0.3 here: "TTCCACAAGATACTGCACCTTT"
Ans: MET

Q: Is reported sensor-assay potency score (higher = more potent) greater than or equal to -0.3 here: "TTGACATATTGTACAGACCATT"
Ans: NOT MET

Q: Is reported sensor-assay potency score (higher = more potent) greater than or equal to -0.3 here: "ATGATTGAGTTGTAACTCCTGA"
Ans: MET

====

# tested system: PCP2
# protocol description: pooled miR-30 sensor sort-seq; sequence = guide strand
# experimental setup: shRNA
readout: sensor-assay potency score (higher = more potent)

Q: Quick check: sensor-assay potency score (higher = more potent) of "ATGAGGCTGTCCATCTCGGGGG" ?
Ans: -1.33

Q: Quick check: sensor-assay potency score (higher = more potent) of "TGAACAGCGCTGTCCCTCCATC" ?
Ans: -1.32

Q: Quick check: sensor-assay potency score (higher = more potent) of "TCGTTTCTGTGCTCCGTCCTTG" ?
Ans: -0.435

Q: Quick check: sensor-assay potency score (higher = more potent) of "TCCATGAGGCTGTCCATCTCGG" ?
Ans: -1.39

Q: Quick check: sensor-assay potency score (higher = more potent) of "TTGCAGTGAACAGCGCTGTCCC" ?
Ans: -0.308

Q: Quick check: sensor-assay potency score (higher = more potent) of "TTTCTGTGCTCCGTCCTTGGAC" ?
Ans: -1.03

Q: Quick check: sensor-assay potency score (higher = more potent) of "ACACGTTGGTCATCCATGCGGC" ?
Ans: -0.873

Q: Quick check: sensor-assay potency score (higher = more potent) of "TTGGTGGTCTGGCCCGGCCCGG" ?
Ans: -1.82

====

# tested system: REST
# protocol description: pooled miR-30 sensor sort-seq; sequence = guide strand
# experimental setup: shRNA
Assign yes (1) to entries whose sensor-assay potency score (higher = more potent) meets or exceeds 0.1; assign no (0) to the rest.

Q: Is reported sensor-assay potency score (higher = more potent) greater than or equal to 0.1 here: "TATCTTAACAGGTTCCTTCTGG"
Ans: yes (1)

Q: Is reported sensor-assay potency score (higher = more potent) greater than or equal to 0.1 here: "TTTCACTTTTGAGACATCCATT"
Ans: no (0)

Q: Is reported sensor-assay potency score (higher = more potent) greater than or equal to 0.1 here: "TAGATTTGAAGTGATACTGTAG"
Ans: yes (1)

Q: Is reported sensor-assay potency score (higher = more potent) greater than or equal to 0.1 here: "TTGGTCTTCGAGCTCTTGCCTT"
Ans: no (0)

Q: Is reported sensor-assay potency score (higher = more potent) greater than or equal to 0.1 here: "TATCTGAACAGGCTCCTTCTGG"
Ans: no (0)

Q: Is reported sensor-assay potency score (higher = more potent) greater than or equal to 0.1 here: "TTTCTTAGCACTGTGAACTCTG"
Ans: yes (1)

====

# tested system: CADM4
# protocol description: pooled miR-30 sensor sort-seq; sequence = guide strand
# experimental setup: shRNA
Assign Criterion met to entries whose sensor-assay potency score (higher = more potent) meets or exceeds -0.04; assign Criterion not met to the rest.

Q: Is reported sensor-assay potency score (higher = more potent) greater than or equal to -0.04 here: "ACATATGATCAGAAACACCAGC"
Ans: Criterion not met

Q: Is reported sensor-assay potency score (higher = more potent) greater than or equal to -0.04 here: "TCTGTCTGTACTTCCTGTCCTG"
Ans: Criterion met

Q: Is reported sensor-assay potency score (higher = more potent) greater than or equal to -0.04 here: "TGGATGACAACTATGGACCCAT"
Ans: Criterion not met

Q: Is reported sensor-assay potency score (higher = more potent) greater than or equal to -0.04 here: "TTTGCTGGTTCCTTGCAGCTGG"
Ans: Criterion met

Q: Is reported sensor-assay potency score (higher = more potent) greater than or equal to -0.04 here: "TTACGGTCCACACGAAACCGTA"
Ans: Criterion not met

Q: Is reported sensor-assay potency score (higher = more potent) greater than or equal to -0.04 here: "AAGCTGGAAACGCTCATCCTTC"
Ans: Criterion not met

Q: Is reported sensor-assay potency score (higher = more potent) greater than or equal to -0.04 here: "TATGATCAGAAACACCAGCAGC"
Ans: Criterion not met

Q: Is reported sensor-assay potency score (higher = more potent) greater than or equal to -0.04 here: "TTATTGGACGCCTCGCAAGTGT"
Ans: Criterion not met

Q: Is reported sensor-assay potency score (higher = more potent) greater than or equal to -0.04 here: "TTGAAGAAGAGGGTCTGCCGGG"
Ans: Criterion met

====

# tested system: SSU72
# protocol description: pooled miR-30 sensor sort-seq; sequence = guide strand
# experimental setup: shRNA
Would you kindly list sensor-assay potency score (higher = more potent) for each of these sequences?
API note: the answer field is a bare number with no unit suffix.

Q: Quick check: sensor-assay potency score (higher = more potent) of "TTCTGGAATCTTTCTGGCCGGG" ?
Ans: -0.713

Q: Quick check: sensor-assay potency score (higher = more potent) of "ATAAACATTGGGCTTGTCGGGA" ?
Ans: -0.564

Q: Quick check: sensor-assay potency score (higher = more potent) of "ATGAACAACAGGAAGCTCCAGA" ?
Ans: -0.247

Q: Quick check: sensor-assay potency score (higher = more potent) of "AACTTTGTAATCAATATCCTGC" ?
Ans: 0.0512

Q: Quick check: sensor-assay potency score (higher = more potent) of "TCGTTCTCCATGTCTTCCGTGT" ?
Ans: -0.416

Q: Quick check: sensor-assay potency score (higher = more potent) of "TAAACATTGGGCTTGTCGGGAG" ?
Ans: -0.587

====

# tested system: SH3YL1
# protocol description: pooled miR-30 sensor sort-seq; sequence = guide strand
# experimental setup: shRNA
readout: sensor-assay potency score (higher = more potent)
API note: the answer field is a bare number with no unit suffix.

Q: Quick check: sensor-assay potency score (higher = more potent) of "TTTCATAAAGATCTTCGGCTTG" ?
Ans: -0.146

Q: Quick check: sensor-assay potency score (higher = more potent) of "ATAACTGTGATTCTGTCTCCAG" ?
Ans: -0.286

Q: Quick check: sensor-assay potency score (higher = more potent) of "TTAACTAGTAAATCCTGTCAGT" ?
Ans: -0.0626

Q: Quick check: sensor-assay potency score (higher = more potent) of "TTATATTCATTTCTGTTGCTTT" ?
Ans: -0.121

Q: Quick check: sensor-assay potency score (higher = more potent) of "TTGGAGGTAATTCTTTAGCAGA" ?
Ans: -1.34

Q: Quick check: sensor-assay potency score (higher = more potent) of "TTGCTTAACTAGTAAATCCTGT" ?
Ans: 0.218

Q: Quick check: sensor-assay potency score (higher = more potent) of "TAACTGTGATTCTGTCTCCAGC" ?
Ans: -0.946

Q: Quick check: sensor-assay potency score (higher = more potent) of "TTGAGAGCCAGAGTTCAGCTGG" ?
Ans: 0.176

Q: Quick check: sensor-assay potency score (higher = more potent) of "TTGTCCTTCATTTTCATACTTT" ?
Ans: -0.366

Q: Quick check: sensor-assay potency score (higher = more potent) of "TTTAGCAGAAGACTTCCTCTGC" ?
Ans: 0.193

====

# tested system: C17orf64
# protocol description: pooled miR-30 sensor sort-seq; sequence = guide strand
# experimental setup: shRNA
readout: sensor-assay potency score (higher = more potent)
API note: the answer field is a bare number with no unit suffix.

Q: Quick check: sensor-assay potency score (higher = more potent) of "TGTACTTGTAAAGTCGGCGAAG" ?
Ans: -0.717

Q: Quick check: sensor-assay potency score (higher = more potent) of "TTCCTTTATCCTCTTCCTCTTG" ?
Ans: -0.925

Q: Quick check: sensor-assay potency score (higher = more potent) of "TTCATGCCGCTGATGTTGCTGT" ?
Ans: -0.699

Q: Quick check: sensor-assay potency score (higher = more potent) of "TTGGTGTACTTGTAAAGTCGGC" ?
Ans: -0.519

Q: Quick check: sensor-assay potency score (higher = more potent) of "TTGGGCAGACTGTCTTCCCGGT" ?
Ans: -0.108
